- experimentalSystem: KRas G12C/Q61H double mutant (Homo sapiens (Human), UniProt P01116, G12C/Q61H)
- Sequence (P01116-2 other isoform, or with tags, fused parts or gaps G12C/Q61H): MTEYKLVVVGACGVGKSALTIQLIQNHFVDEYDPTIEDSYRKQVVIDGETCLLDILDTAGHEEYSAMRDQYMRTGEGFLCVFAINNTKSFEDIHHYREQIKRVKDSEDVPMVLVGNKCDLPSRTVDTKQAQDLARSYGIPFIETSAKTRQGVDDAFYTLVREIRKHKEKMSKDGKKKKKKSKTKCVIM
- assayComment: Ras GTP binding domain inhibition assay (labeled GTP)
- conditionDescription: 20 μM compound; KRas G12C/Q61H double mutant; read-out: % Inhibition at 20 μM of K-Ras mutant and wild-type protein, KRas G12C Q61H
parameter: inhibition at 20 µM

Use these answered entries as a reference point.
If you can, please state the reported inhibition at 20 µM value of Cn1cnc(-c2nc(O)c3c(-c4ccccc4)c(-c4ccncc4)sc3n2)c1 [drawing 3528] .
1 to 25%

Can you handle Cc1sc2c(O)nc(-c3ccccn3)nc2c1C(=O)N1CCN(Cc2cccc(O)c2)CC1 [drawing 3510] next?
51 to 75%

Query COc1nc(-c2ccccn2)nc2c(C3CCC3)csc12 [drawing 3480] next
51 to 75%

Further cases:
Quick one: inhibition at 20 µM of Nc1nc(-c2ccccn2)nc(C(=O)NCCc2ccncc2)c1Oc1ccccc1 [drawing 3551] ?
1 to 25%

Now the molecule Oc1cccc(-c2csc3c(O)nc(-c4ccccn4)nc23)n1 [drawing 3498]
51 to 75%
